tested-on: CC chemokine receptor 8 (CCR8) (human, UniProt P51685 1-355)
Sequence (P51685 whole entry): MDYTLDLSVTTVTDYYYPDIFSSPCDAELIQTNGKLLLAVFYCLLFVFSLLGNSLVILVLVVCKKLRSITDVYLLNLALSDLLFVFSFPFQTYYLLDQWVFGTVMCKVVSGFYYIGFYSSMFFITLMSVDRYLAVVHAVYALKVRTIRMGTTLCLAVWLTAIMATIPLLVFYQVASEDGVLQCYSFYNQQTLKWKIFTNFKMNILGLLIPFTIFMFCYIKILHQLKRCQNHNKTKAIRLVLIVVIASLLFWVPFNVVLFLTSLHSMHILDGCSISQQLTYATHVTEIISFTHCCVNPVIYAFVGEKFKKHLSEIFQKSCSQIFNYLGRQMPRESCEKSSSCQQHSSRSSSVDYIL
assay-text: radioligand binding
property-name: IC50 (nM)

binder	units-symbol	number
MC148 CC chemokine from molluscum contagiosum virus (MCV), processed secreted protein (ligand, molluscum contagiosum virus subtype 1, UniProt Q98314 1-104, looked up) LARRKCCLNPTNRPIPNPLLQDLSRVDYQAIGHDCGREAFRVTLQDGRQGCVSVGNKSLLDWLRGHKDLCPQIWSGCESL	nM	0.27
